assay: determination of the log P values by HPLC on a reverse phase column (C18), EEC-Directive 79/831 Annex V.A8; assay type: physicochemical; details: pH 2.3
Label Fulfilled when chromatographic logP is strictly below 2; at or above that, label Not fulfilled.

[[record]]
compound = "CC(C)C(=O)Nc1cc(-c2c(-c3csc(Cl)c3)nn3c2CCC3)ccn1 [[XI-21]]"
assigned_label = "Not fulfilled"

[[record]]
compound = "O=C(Nc1cc(-c2c(-c3ccc(F)cc3)nn3c2CCC3)ccn1)C1CC1 [[XI-4]]"
assigned_label = "Fulfilled"

[[record]]
compound = "CCC(=O)Nc1cc(-c2c(-c3ccc(F)cc3)nn3c2C(OC)CC3)ccn1 (stereo not drawn) [[XI-19]]"
assigned_label = "Fulfilled"

[[record]]
compound = "Fc1ccc(-c2nn3c(c2Br)CCC3)cc1 [[IV-1]]"
assigned_label = "Not fulfilled"

[[record]]
compound = "CC(=O)Nc1cc(-c2c(-c3ccccc3)nn3c2C(C)CC3)ccn1 (stereo not drawn) [[XI-1]]"
assigned_label = "Fulfilled"

[[record]]
compound = "Nc1cc(-c2c(-c3ccc(F)cc3)nn3c2CCC3)ccn1 [[II-1]]"
assigned_label = "Fulfilled"

[[record]]
compound = "Nc1cc(-c2c(-c3ccc(F)c(F)c3)nn3c2CCC3)ccn1 [[II-3]]"
assigned_label = "Fulfilled"

[[record]]
compound = "O=C(CCc1ccccc1)Nc1cc(-c2c(-c3ccc(F)cc3)nn3c2CCC3)ccn1 [[XI-28]]"
assigned_label = "Not fulfilled"


Would you kindly verify if chromatographic logP of Fc1ccc(-c2nn3c(c2Br)CCC3)cc1F [[IV-2]] is strictly less than 2?
Not fulfilled

Same lookup for CC(=O)Nc1cc(-c2c(-c3ccc(F)cc3)nn3c2CC(C)C3)ccn1 (stereo not drawn) [[XI-3]] , please.
Fulfilled

Try this compound next: OCCCCc1cc(-c2ccc(F)cc2)n[nH]1 [[XIV-4]]
Fulfilled

====

test system: Phytophthora infestans; assay: whole plant or invertebrate; assay type: in vivo; details: 72 h, read-out: efficacy
readout: pest or weed control at 100 ppm (%)
Numeric answer only, unit % assumed.

[[record]]
molecule = "CCOC(=O)N(C(=O)C1CC1)c1cc(-c2c(-c3ccc(F)cc3)nn3c2CCC3)ccn1 [Example 11]"
result_unit = "%"
reported_result = 86


pest or weed control at 100 ppm for CCC(=O)N(C(C)=O)c1cc(-c2c(-c3ccc(F)cc3)nn3c2CCC3)ccn1 [Example 5] ?
83

Please give the result for CC(=O)N(C(C)=O)c1cc(-c2c(-c3ccsc3)nn3c2CCCC3)ccn1 [Example 4] too.
95

// query: CC(=O)N(C(C)=O)c1cc(-c2c(-c3cccs3)nn3c2CCCC3)ccn1 [Example 8]
83

And CC(=O)N(C(C)=O)c1cc(-c2c(-c3ccc(F)cc3)nn3c2CCCC3)ccn1 [Example 1] ?
94

Then this molecule: CCC(=O)N(C(=O)C(C)C)c1cc(-c2c(-c3ccc(F)cc3)nn3c2CCOC3C)ccn1 (stereo not drawn) [Example 3]
91

====

test: determination of the log P values by HPLC on a reverse phase column (C18), EEC-Directive 79/831 Annex V.A8; type: physicochemical; conditions: pH 2.7
// NB: equality with 2 counts as N; only chromatographic logP strictly below is Y

Field: example entries. Status: answers known.
[[record]]
molecule = "Fc1ccc(-c2cc3n(n2)CCC3)cc1Cl [[VI-3]]"
assigned_label = "N"

[[record]]
molecule = "CC(=O)Nc1cc(-c2c(-c3ccccc3)nn3c2C(C)CC3)ccn1 (stereo not shown) [[XI-1]]"
assigned_label = "Y"

[[record]]
molecule = "CC1(C)OB(c2c(-c3ccc(F)c(F)c3)nn3c2CCC3)OC1(C)C [[III-2]]"
assigned_label = "N"


chromatographic logP under 2? Item: CS(=O)(=O)OCCCc1cc(-c2ccc(F)c(Cl)c2)n[nH]1 [[VII-2]]
N

Now the same for OCCCc1cc(-c2ccc(F)cc2)n[nH]1 [[XIV-1]]
Y

Same question for OCCCc1cc(-c2ccc(F)c(F)c2)n[nH]1 [[XIV-2]] please.
Y

Entry CC(CCO)c1cc(-c2ccc(F)cc2)n[nH]1 (stereo not shown) [[XIV-5]] please
Y

Next: Fc1ccc(-c2cc3n(n2)CCC3)cc1 [[VI-1]]
N

====

Reported efficacy by item:
tested on: Septoria tritici; experiment: Septoria tritici-test (wheat)/preventive; assay type: in vivo; details: 500 ppm of active ingredient, preventive, evaluated 21 days after inoculation
Kindly answer with a numeric value in %, unit omitted.

Solved cases (3 shown):
[[record]]
compound = "CC(=O)N(C(C)=O)c1cc(-c2c(-c3ccc(F)cc3)nn3c2CCCC3)ccn1 [Example 1]"
study_system = "Septoria tritici"
readout = "efficacy"
reported_result = 100

[[record]]
compound = "CCC(=O)N(C(=O)CC)c1cc(-c2c(-c3ccc(F)cc3)nn3c2CCC3)ccn1 [Example 7]"
study_system = "Septoria tritici"
readout = "efficacy"
reported_result = 86

[[record]]
compound = "CC(=O)N(C(C)=O)c1cc(-c2c(-c3ccc(F)cc3)nn3c2CCOC3C)ccn1 (stereo not shown) [Example 10]"
study_system = "Septoria tritici"
readout = "efficacy"
reported_result = 80


Please turn your attention to the following entry.
Any idea what efficacy was measured for CC(=O)N(C(C)=O)c1cc(-c2c(-c3ccccc3)nn3c2CCCC3)ccn1 [Example 2] ?
100

====

experiment: determination of the log P values by HPLC on a reverse phase column (C18), EEC-Directive 79/831 Annex V.A8; format: physicochemical; conditions: pH 2.5
This section presents compounds with their documented chromatographic logP values.
Please give the numeric answer without any surrounding text.

Solved entries:
[[record]]
compound = "CC1CCc2c(I)c(-c3ccc(F)cc3)nn21 (centres unmarked) [[IV-5]]"
reported_result = 3.78

[[record]]
compound = "Clc1cc(-c2nn3c(c2I)CCCC3)cs1 [[IV-6]]"
reported_result = 4.49

[[record]]
compound = "Fc1ccc(-c2nn3c(c2Br)CCC3)cc1Cl [[IV-3]]"
reported_result = 4.01


Fill in the blank: the reported chromatographic logP of CC1CCn2nc(-c3ccccc3)c(I)c21 (centres unmarked) [[IV-4]] is ____.
3.56

Now consider Fc1ccc(-c2nn3c(c2Br)CCC3)cc1F [[IV-2]] and answer again.
3.54

====

assay: determination of the log P values by HPLC on a reverse phase column (C18), EEC-Directive 79/831 Annex V.A8; assay type: physicochemical
The label depends only on chromatographic logP: Yes if it is at least 3, No if it is smaller.

[[record]]
molecule = "COC(=O)N(C(=O)C1CC1)c1cc(-c2c(-c3ccc(F)cc3)nn3c2CCC3)ccn1"
assigned_label = "No"

[[record]]
molecule = "CCC(=O)N(C(C)=O)c1cc(-c2c(-c3ccc(F)cc3)nn3c2CCC3C)ccn1 (centres unmarked)"
assigned_label = "No"

[[record]]
molecule = "CCC(=O)N(C(=O)CC)c1cc(-c2c(-c3ccc(F)cc3)nn3c2CCC3)ccn1"
assigned_label = "No"

[[record]]
molecule = "CCC(=O)N(C(=O)C1CC1)c1cc(-c2c(-c3ccc(F)cc3)nn3c2CCCC3)ccn1"
assigned_label = "Yes"


Decide: is the reported value of chromatographic logP for CC(=O)N(C(C)=O)c1cc(-c2c(-c3ccc(F)cc3)nn3c2CCCC3)ccn1 equal to or greater than 3?
No

====

Test: determination of the log P values by HPLC on a reverse phase column (C18), EEC-Directive 79/831 Annex V.A8
Type: physicochemical
Conditions: pH 2.3
Method: Method A Note on the determination of the log P values and mass detection: The stated log P values were determined in accordance with EEC-Directive 79/831 Annex V.A8 by HPLC (High Performance Liquid Chromatography) on a reverse phase column (C18). […] Method B Note on the determination of the log P values and mass detection: The stated log P values were determined in accordance with EEC-Directive 79/831 Annex V.A8 by HPLC (High Performance Liquid Chromatography) on a reverse phase column (C18). […]
Catalogue of chromatographic logP readings, one per entry.
// return just the number, without any unit appended

See these solved cases before continuing.
[[record]]
compound = "CCC(=O)Nc1cc(-c2c(-c3csc(Cl)c3)nn3c2CCC3)ccn1 [[XI-12]]"
readout = "chromatographic logP"
reported_result = 1.95

[[record]]
compound = "O=C(Nc1cc(-c2c(-c3csc(Cl)c3)nn3c2CCC3)ccn1)C1CC1 [[XI-20]]"
readout = "chromatographic logP"
reported_result = 2.02

[[record]]
compound = "CC1Cc2c(-c3ccnc(NC(=O)CC4CC4)c3)c(-c3ccc(F)cc3)nn2C1 (stereo not drawn) [[XI-22]]"
readout = "chromatographic logP"
reported_result = 2.36

[[record]]
compound = "CC1OCCc2c(-c3ccnc(NC(=O)C4CC4)c3)c(-c3ccc(F)cc3)nn21 (stereo not drawn) [[XI-23]]"
readout = "chromatographic logP"
reported_result = 2.33

[[record]]
compound = "CC(C)CC(=O)Nc1cc(-c2c(-c3ccc(F)cc3)nn3c2CCC3)ccn1 [[XI-15]]"
readout = "chromatographic logP"
reported_result = 2.2

[[record]]
compound = "CC1CCn2nc(-c3ccccc3)c(-c3ccnc(NC(=O)CC4CC4)c3)c21 (stereo not drawn) [[XI-11]]"
readout = "chromatographic logP"
reported_result = 2.32


Need chromatographic logP of COCC(=O)Nc1cc(-c2c(-c3ccccc3)nn3c2C(C)CC3)ccn1 (stereo not drawn) [[XI-5]] , thanks.
2.22

Next up: O=C(Nc1cc(-c2c(-c3ccc(F)cc3)nn3c2CCC3)ccn1)C1CCC1 [[XI-14]]
2.08

Continue with CCC(=O)Nc1cc(-c2c(-c3ccc(F)cc3)nn3c2CCC3CC)ccn1 (stereo not drawn) [[XI-16]]
2.3
